# MEASURED TARGET: human GPR84 receptor (Homo sapiens)
# PROTOCOL SUMMARY: Gαi biosensor BRET assay in HEK293 cells (antagonism of ZQ-16)
# CONDITION SET: HEK293 cells, antagonism of 200 nmol/L ZQ-16
pIC50: −log10 of the molar value.
MEASURED PROPERTY: pIC50

In the examples that follow, each entry is paired with its recorded pIC50.
MOLECULE	MEASURED TARGET	pIC50
Cc1cc(N2CCCC(N(C)Cc3ccccc3)C2)ccc1-c1cn(CC2CCCCO2)nn1 (stereo not shown) [Compound I-171]	human GPR84 receptor (Homo sapiens)	5.52 to 6.00
C(#CC1CC1)c1ccc(-c2cn(C[C@H]3CCCCO3)nn2)cc1 [Compound I-24]	human GPR84 receptor (Homo sapiens)	< 5.52
CCc1cc(N2CC(C)(C)C2)ccc1-c1cn(CC2OCC(C)(C)CO2)nn1 [Compound I-618]	human GPR84 receptor (Homo sapiens)	≥ 6.52
Cc1cc(N2CCN([C@@H](C)c3ccccn3)CC2)ccc1-c1cn(CC2OCC(C)(C)CO2)nn1 [Compound I-716]	human GPR84 receptor (Homo sapiens)	6.00 to 6.52
CCc1cc(C#CCNC(=O)OC)ccc1-c1cn(CC2CCCCO2)nn1 (stereo not shown) [Compound I-586]	human GPR84 receptor (Homo sapiens)	5.52 to 6.00

Query string: What does the record list as pIC50 for COC(c1cn(CC2Oc3ccccc3O2)nn1)c1cc(C#CC2CC2)ccc1C (stereo not shown) [Compound I-605] ?
Result string: 6.00 to 6.52

Query string: Item: COC(c1cn(CC2CCCCO2)nn1)c1cc(C#CC2CC2)ccc1C (stereo not shown) [Compound I-417]
Result string: 6.00 to 6.52

###

Each record here notes measured inhibition at 10 µM.
# MEASURED TARGET: human GPR84 receptor (Homo sapiens, UniProt Q9NQS5)
# Construct: host or cells: HEK293, transient transfection
# Sequence (Q9NQS5 whole entry): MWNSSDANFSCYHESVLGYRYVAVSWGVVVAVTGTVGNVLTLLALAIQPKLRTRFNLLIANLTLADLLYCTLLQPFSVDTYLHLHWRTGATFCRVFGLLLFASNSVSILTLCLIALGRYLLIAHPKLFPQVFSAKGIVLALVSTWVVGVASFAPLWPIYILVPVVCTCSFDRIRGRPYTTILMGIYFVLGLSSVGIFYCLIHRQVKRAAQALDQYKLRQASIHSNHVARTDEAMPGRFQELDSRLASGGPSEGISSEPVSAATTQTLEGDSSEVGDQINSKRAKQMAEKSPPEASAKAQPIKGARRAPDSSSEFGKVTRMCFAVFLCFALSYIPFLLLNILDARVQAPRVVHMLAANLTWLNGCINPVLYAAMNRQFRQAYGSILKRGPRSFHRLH
# PROTOCOL SUMMARY: Gαi biosensor BRET assay in HEK293 cells (antagonism of ZQ-16)
# Assay type: cell-based
# CONDITION SET: HEK293, single concentration 10 μM (designated F)

# example entries with known answers
COMPOUND	MEASURED TARGET	READING
Cc1cc(N2CCN(Cc3cccnc3)CC2)ccc1-c1cn(CC2CCCCO2)nn1 (stereo not shown)	human GPR84 receptor (Homo sapiens, UniProt Q9NQS5)	50 to 75%
FC1(F)CC(C#Cc2cnc(-c3cn(CC4OCC5(CC5)CO4)nn3)c(OC3CC3)c2)C1 (stereo not shown)	human GPR84 receptor (Homo sapiens, UniProt Q9NQS5)	50 to 75%
Cc1cc(N2CC(C)(CO)C2)ccc1-c1cn(CC2CCCCO2)nn1 (stereo not shown)	human GPR84 receptor (Homo sapiens, UniProt Q9NQS5)	> 75%

Please look at the following compound next.
Query string: // inhibition at 10 µM lookup, key: Cc1cc(C2CCCN(Cc3ccccn3)C2)ccc1-c1cn(CC2CCCCO2)nn1 (stereo not shown)
Result string: 50 to 75%

###

Documented inhibition at 10 µM across a set of compounds
# MEASURED TARGET: human GPR84 receptor (Homo sapiens)
# Construct: host or cells: HEK293, transient transfection
# PROTOCOL SUMMARY: Gαi biosensor BRET assay in HEK293 cells (antagonism of ZQ-16)
# Assay type: cell-based
# CONDITION SET: HEK293, single concentration 10 μM (designated F)

A selection of reference data follows.
COMPOUND	inhibition at 10 µM
Cc1cc(N2CCN(Cc3cnccn3)CC2)ccc1-c1cn(CC2CCCCO2)nn1 (centres unmarked)	25 to 50%
Cc1cc(C#CC2(O)CCCCC2)ccc1-c1cn(CC2CCCCO2)nn1 (centres unmarked)	> 75%
Cc1cc(C#CC2CC2)ccc1-c1cn(C[C@H]2CC[C@@H](C)O2)nn1	25 to 50%

Query string: Give human GPR84 receptor (Homo sapiens) inhibition at 10 µM for Cc1cc(C#CCNc2ccccc2)ccc1-c1cn(CC2CCCO2)nn1 (centres unmarked)
Result string: > 75%

Query string: What do we get for FC(F)(F)c1ccc(C#CC2CC2)cc1-c1cn(CC2CCCCO2)nn1 (centres unmarked) ?
Result string: 25 to 50%

###

# MEASURED TARGET: human GPR84 receptor (Homo sapiens, UniProt Q9NQS5)
# PROTOCOL SUMMARY: Gαi biosensor BRET assay in HEK293 cells (antagonism of ZQ-16)
# CONDITION SET: HEK293 cells, antagonism of 200 nmol/L ZQ-16
MEASURED PROPERTY: IC50

MOLECULE	IC50
Cc1cc(N2CC(C)(CO)C2)c(F)cc1-c1cn(CC2CCCCO2)nn1 (centres unmarked) [Compound I-730]	300 to 1000 nM
Cc1cc(N2CC(C)(NCc3ccccn3)C2)ccc1-c1cn(CC2CCCCO2)nn1 (centres unmarked) [Compound I-441]	1000 to 3000 nM
Cc1cc(OCc2ccccn2)ccc1-c1cn(CC2CCCCO2)nn1 (centres unmarked) [Compound I-54]	300 to 1000 nM
CC1(C)COC(Cn2cc(-c3ccc(N4CC(C)(CO)C4)cc3CC(F)(F)F)nn2)C1 (centres unmarked) [Compound I-740]	≤ 300 nM
CCc1cc(N2CC(C)(O)C2)ccc1-c1cn(CC2OCC(C)(C)CO2)nn1 [Compound I-641]	300 to 1000 nM
CC1(NCc2ccccn2)CN(c2ccc(-c3cn(CC4CCCCO4)nn3)c(CC(F)(F)F)c2)C1 (centres unmarked) [Compound I-744]	300 to 1000 nM

Query string: # query: IC50 of entry Cc1cc(C#CCNc2ccccc2)ccc1-c1cn(C[C@H]2CCCCO2)nn1 [Compound I-166]
Result string: 300 to 1000 nM

Query string: Another molecule to check: CC1(C)COC(Cn2cc(-c3ncc(C#CCN4CC(C)(C)C4)cc3OC3CC3)nn2)OC1 [Compound I-709]
Result string: ≤ 300 nM

Query string: Cc1cc(C#CC(C)(C)O)ccc1-c1cn(CC2CCCCO2)nn1 (centres unmarked) [Compound I-79] ?
Result string: > 3000 nM

Query string: For Cc1ccc(C#CC2CC2)cc1C(CC(F)(F)F)c1cn(CC2OCC(C)(C)CO2)nn1 (centres unmarked) [Compound I-681] then?
Result string: 300 to 1000 nM

Query string: Input FC(F)(F)Cc1cc(N2CCN(Cc3ccccn3)CC2)ccc1-c1cn(C[C@H]2CCCCO2)nn1 [Compound I-746]
Result string: ≤ 300 nM

Query string: Try this molecule too: CC(C)Oc1cc(C#CC2CC2)cnc1-c1cn(CC2OCC3(CCC3)O2)nn1 (centres unmarked) [Compound I-797]
Result string: ≤ 300 nM

Query string: And CCc1cc(C#CC2CC2)ccc1-c1cn(CC2CCCCO2)nn1 (centres unmarked) [Compound I-77] ?
Result string: 300 to 1000 nM

Query string: Then Cc1cc(N2CCN(C(C)c3ccccn3)CC2)ccc1-c1cn(CC2OCC(C)(C)CO2)nn1 (centres unmarked) [Compound I-691] ?
Result string: 300 to 1000 nM

Query string: Note, next up: CC(C)c1cc(N2CC(C)(C)C2)cnc1-c1cn(CC2CC(C)(C)O2)nn1 (centres unmarked) [Compound I-600]
Result string: 1000 to 3000 nM

Query string: Another molecule: CC(C)Oc1cc(N2CC(C)(CO)C2)ccc1-c1cn(CC2CC(C)(C)O2)nn1 (centres unmarked) [Compound I-677]
Result string: ≤ 300 nM

Query string: Let us now turn to c1ccc(COc2ccc3c(c2)CCc2cn(CC4CCCCO4)nc2-3)cc1 (single isomer, unassigned) [Compound I-330]
Result string: 300 to 1000 nM

###

# MEASURED TARGET: human GPR84 receptor (Homo sapiens)
# Construct: host or cells: HEK293, transient transfection
# PROTOCOL SUMMARY: Gαi biosensor BRET assay in HEK293 cells (antagonism of ZQ-16)
# Type: cell-based
# CONDITION SET: HEK293, single concentration 10 μM (designated F)
Listed here are compounds together with their documented inhibition at 10 µM.

As a guide, the following entries are already answered.
COMPOUND	inhibition at 10 µM
CC(C)(C)OCCn1cc(-c2ccc(C#CC3CC3)cc2)nn1	≤ 25%
COC(c1cn(CC2OCC(F)(F)CO2)nn1)c1cc(C#CC2CC2)c(F)cc1C (stereo not drawn)	> 75%
Cc1cc(N2CCC(O)C2)ccc1-c1cn(CC2CCCCO2)nn1 (stereo not drawn)	≤ 25%
Cc1cc(C#CC2CC2)ccc1-c1cn(CC2CC(C)(C)O2)nn1 (stereo not drawn)	50 to 75%
Cc1cc(C2CCN(Cc3ccccn3)CC2)cnc1Cc1cn(CC2CCCCO2)nn1 (stereo not drawn)	≤ 25%

Query string: Any idea what its inhibition at 10 µM is? The compound is CCc1cc(C#CCNC(=O)OC)ccc1-c1cn(CC2CCCCO2)nn1 (stereo not drawn)
Result string: > 75%

Query string: Here is the next compound: Cc1cc(N2CC3(C2)CN(c2ccccn2)C3)ccc1-c1cn(CC2CCCCO2)nn1 (stereo not drawn)
Result string: ≤ 25%

Query string: Repeat with "CC(C)OCC1(C)CN(c2ccc(-c3cn(CC4OCC(C)(C)CO4)nn3)c(N(C)C)c2)C1"
Result string: > 75%

Hello, the source for this data is patent US12617777B2, in case you need it.
